# target_or_test_system: 5-hydroxytryptamine receptor 1A (Homo sapiens)
# Sequence (P08908 whole entry): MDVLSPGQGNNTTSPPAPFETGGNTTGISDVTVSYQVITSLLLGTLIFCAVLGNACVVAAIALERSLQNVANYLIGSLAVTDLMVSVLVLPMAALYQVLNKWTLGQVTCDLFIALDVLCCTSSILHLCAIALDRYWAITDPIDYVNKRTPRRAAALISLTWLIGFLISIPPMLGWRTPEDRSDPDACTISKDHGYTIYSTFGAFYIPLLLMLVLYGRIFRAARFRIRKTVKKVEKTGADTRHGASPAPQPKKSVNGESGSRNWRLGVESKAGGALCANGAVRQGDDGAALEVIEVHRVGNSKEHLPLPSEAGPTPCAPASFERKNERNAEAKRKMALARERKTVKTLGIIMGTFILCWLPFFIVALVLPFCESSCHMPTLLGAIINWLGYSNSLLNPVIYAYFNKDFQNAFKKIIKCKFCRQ
measured_endpoint: Ki (nM)
Express your answer in nM, writing the number without its unit.

Prompt line: Query Ki for O=C1COc2ccc(OC3CCN(CCOc4nccc5ccccc45)CC3)cc2N1
Response line: 7.94

Prompt line: Query Ki for O=C1COc2ccc(OC3CCN(CCOc4cccc5[nH]ccc45)CC3)cc2N1
Response line: 3.98

Prompt line: Query Ki for O=C1COc2ccc(OCCNCCCOc3cccc4[nH]ccc34)cc2N1
Response line: 1.58
